Source listed as patent US20190330354A1.

Recorded ELISA hMET vs parental by entry
# Target Under Test: T1, human cMET (human, UniProt P08581 25-932, limits assumed)
# T1 construct: also called hMET
# T1 sequence (P08581 25-932 limits assumed): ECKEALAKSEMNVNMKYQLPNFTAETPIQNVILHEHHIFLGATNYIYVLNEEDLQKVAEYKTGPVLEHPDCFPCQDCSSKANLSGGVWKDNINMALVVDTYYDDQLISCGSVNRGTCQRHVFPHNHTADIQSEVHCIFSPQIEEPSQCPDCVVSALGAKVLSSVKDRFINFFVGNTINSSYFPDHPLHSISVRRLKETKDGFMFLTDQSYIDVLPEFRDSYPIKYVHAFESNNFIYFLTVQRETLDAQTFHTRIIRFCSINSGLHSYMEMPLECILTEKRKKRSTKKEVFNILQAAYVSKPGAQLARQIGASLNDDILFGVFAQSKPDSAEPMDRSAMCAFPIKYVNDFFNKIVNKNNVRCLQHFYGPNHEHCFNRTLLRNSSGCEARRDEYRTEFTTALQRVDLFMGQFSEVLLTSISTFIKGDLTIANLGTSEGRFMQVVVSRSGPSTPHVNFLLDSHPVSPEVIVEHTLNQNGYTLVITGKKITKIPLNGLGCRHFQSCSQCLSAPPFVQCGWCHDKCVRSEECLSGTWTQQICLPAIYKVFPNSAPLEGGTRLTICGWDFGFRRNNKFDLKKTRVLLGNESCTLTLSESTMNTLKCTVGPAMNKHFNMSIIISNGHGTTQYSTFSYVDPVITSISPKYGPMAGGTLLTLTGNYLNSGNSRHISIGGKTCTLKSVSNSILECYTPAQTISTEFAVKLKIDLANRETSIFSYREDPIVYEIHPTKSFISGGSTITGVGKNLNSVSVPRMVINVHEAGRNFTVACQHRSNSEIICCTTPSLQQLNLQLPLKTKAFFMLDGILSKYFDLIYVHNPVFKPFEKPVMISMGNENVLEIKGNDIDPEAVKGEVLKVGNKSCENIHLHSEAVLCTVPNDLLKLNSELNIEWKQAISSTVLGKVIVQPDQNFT
# Assay: ELISA on human cMET, ratio to parental P3D12
Observable: ELISA hMET vs parental

* G2vkc (antibody, V domains shown, As G2aka; also called humanized P3D12, HC VH-ven, LC cdr) VH: QVQLVQSGAEVAKPGASVKMSCKASGYTFTSYWMHWVKQAPGQGLDWIGYIKPSTDNTEYNQKFKDKATLTADKSTSTAYMQLSSLRSEDTAVYYCARSYGNYPLMDYWGQGTTVTVSS VL: QIVLTQSPATLSLSPGERATLSCSASSSVTSNYLYWYQQKPGSSPRLLIYSTSNLASGVPARFSGSGSGTSYTLTISRLEPEDFASYFCHQWSSYPPTFGSGTKLEIKR | 1.1
* G2vka (antibody, V domains shown, As G2aka; also called humanized P3D12, HC VH-ven, LC abb/sdr) VH: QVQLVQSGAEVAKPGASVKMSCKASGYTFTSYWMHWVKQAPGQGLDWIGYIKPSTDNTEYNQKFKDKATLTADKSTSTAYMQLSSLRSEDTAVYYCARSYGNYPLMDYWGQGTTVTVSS VL: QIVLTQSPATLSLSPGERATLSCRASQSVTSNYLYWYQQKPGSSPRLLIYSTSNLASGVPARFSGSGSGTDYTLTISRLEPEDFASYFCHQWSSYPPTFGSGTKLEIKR | 0.9
* G2akc (antibody, V domains shown, As G2aka; also called humanized P3D12, HC VH-abb/sdr, LC cdr) VH: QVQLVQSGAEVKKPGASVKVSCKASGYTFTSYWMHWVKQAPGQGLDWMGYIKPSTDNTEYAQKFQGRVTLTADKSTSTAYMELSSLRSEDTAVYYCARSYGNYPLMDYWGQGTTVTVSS VL: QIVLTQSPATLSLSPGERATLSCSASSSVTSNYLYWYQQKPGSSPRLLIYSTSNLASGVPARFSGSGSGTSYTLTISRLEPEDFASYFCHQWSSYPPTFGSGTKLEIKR | 1.3
